Test system: SMMC-7721
ASSAY_TEXT: Induction of apoptosis in human SMMC7721 cells assessed as viable cells at 4 uM incubated for 48 hrs by Annexin-V-FITC/propidium iodide staining based flow cytometry (Rvb=93.5%)
Assay type: functional
ASSAY_SETUP: SMMC-7721, 48 h, read-out: Activity
So I've got a bunch of molecules here, and I need their viability at 4 µM values.
Quick note: number first, unit second.

>>> measured_value("Nc1ccc(F)cc1NC(=O)c1ccc(CNC(=O)/C=C/c2cccnc2)cc1")
"61.6%"
>>> measured_value("CCn1c(SCc2ccc(/C=C/C(=O)Nc3ccccc3N)cc2)nc2cc(OC)ccc2c1=O")
"41.3%"

Now examine the next entry.
Q: Need viability at 4 µM of COc1ccc2c(=O)n(-c3ccccc3Cl)c(SCc3ccc(C(=O)Nc4ccccc4N)cc3)nc2c1 , thanks.
Result: 65.8%

----------
Tested on: HeLa
ASSAY_TEXT: Antiproliferative activity against human HeLa cells assessed as reduction in cell growth at 2 uM incubated for 72 hrs by CCK-8 assay relative to control
Type: functional
MEASUREMENT_LABEL: inhibition at 2 µM (%)
Numbers only, in %.

Worked cases, inhibition at 2 µM given:
>>> measured_value("Cn1c(SCc2ccc(C(=O)Nc3ccccc3N)cc2)nc2cc(Br)ccc2c1=O")
32.3
>>> measured_value("CCCCn1c(SCc2ccc(C(=O)Nc3ccccc3N)cc2)nc2cc(F)ccc2c1=O")
30.9
>>> measured_value("COc1ccc2c(=O)n(C)c(SCc3ccc(/C=C/C(=O)Nc4ccccc4N)cc3)nc2c1")
20.7
>>> measured_value("Cc1ccc2c(=O)n(C)c(SCc3ccc(C(=O)Nc4ccccc4N)cc3)nc2c1")
59.8

Would you be so kind as to report inhibition at 2 µM for each listed record?
1. Cn1c(SCc2ccc(/C=C/C(=O)Nc3ccccc3N)cc2)nc2cc(Br)ccc2c1=O
2. COc1ccc2c(=O)n(-c3cccc(Cl)c3)c(SCc3ccc(/C=C/C(=O)Nc4ccccc4N)cc3)nc2c1
3. Cn1c(SCc2ccc(C(=O)Nc3ccccc3N)cc2)nc2cc(Cl)ccc2c1=O
4. Nc1ccccc1NC(=O)c1ccc(CNC(=O)OCc2cccnc2)cc1
5. COc1ccc2c(=O)n(-c3cccc(Cl)c3)c(SCc3ccc(C(=O)Nc4ccccc4N)cc3)nc2c1

Result:
1: 17.7; 2: 16.3; 3: 51.1; 4: 42.4; 5: 12.3

Q: Item COc1ccc2c(=O)n(C)c(SCc3ccc(C(=O)Nc4ccccc4N)cc3)nc2c1 with HeLa - inhibition at 2 µM?
Result: 57.5
